Species: Homo sapiens
Assay: In vitro human activated partial thromboplastin time of the compound.
Format: functional
Quick reference for APTT among some molecules
Enter your answer as a number in µM; do not include the unit.

Some solved entries appear below for comparison.
INSERT INTO assay_data (cpd_smiles, readout_number) VALUES
  ('Cc1cc(C(=O)Nc2ccc(-c3ccccc3S(C)(=O)=O)cc2F)n(-c2cccc(CN)c2)n1', 1.1),
  ('NCc1cccc(-n2nc(C(F)(F)F)cc2C(=O)Nc2ccc(-c3ccccc3S(N)(=O)=O)cc2)c1', 6.4),
  ('Cc1cc(C(=O)Nc2ccc(-c3ccccc3S(N)(=O)=O)cc2F)n(-c2cccc(CN)c2)n1', 0.92);

Input line: Return reported APTT; argument: Cc1cc(C(=O)Nc2ccc(-c3ccccc3S(C)(=O)=O)cc2)n(-c2cccc(CN)c2)n1
Output line: 1.3

Input line: What APTT value was documented for this molecule, Cc1cc(C(=O)Nc2ccc(-c3ccccc3S(N)(=O)=O)cc2)n(-c2cccc(CN)c2)n1 ?
Output line: 2.3

Input line: Give its APTT value. Item: CS(=O)(=O)c1ccccc1-c1ccc(NC(=O)c2cc(C(F)(F)F)nn2-c2cccc(CN)c2)cc1
Output line: 2.2

Input line: APTT lookup needed for NCc1cccc(-n2nc(C(F)(F)F)cc2C(=O)Nc2ccc(-c3ccccc3S(N)(=O)=O)cc2F)c1 , thanks.
Output line: 0.91

###

UniProtKB P00734 pKi data
API: returns pKi as number; meaning -log10 of concentration in mol/L.

Input line: Any idea what pKi was measured for Cc1cc(C(=O)Nc2ccc(-c3ccccc3S(C)(=O)=O)cc2F)n(-c2cccc(CN)c2)n1 ?
Output line: 4.85

Input line: Reported pKi, compound N=C(N)c1cccc(-n2nc(C(F)(F)F)cc2C(=O)Nc2ccc(-c3ccccc3S(N)(=O)=O)cc2)c1 : ____
Output line: 7.40

Input line: Quick check: pKi of Cc1cc(C(=O)Nc2ccc(-c3ccccc3S(C)(=O)=O)cc2)n(-c2cccc(CN)c2)n1 ?
Output line: 4.68

Input line: Any idea what pKi was measured for CS(=O)(=O)c1ccccc1-c1ccc(NC(=O)c2cc(C(F)(F)F)nn2-c2cccc(C(=N)N)c2)cc1 ?
Output line: 7.15

###

Ki by entry:
Biological target: Trypsin (Homo sapiens, UniProt P07477+P07478+P35030)
Assay: In vitro activity against human trypsin.
Format: protein assay
Entry rule: numbers only, all in µM.

Worked set:
INSERT INTO measurements (cpd_smiles, target_desc, measurement_type, readout_number) VALUES
  ('Cc1cc(C(=O)Nc2ccc(-c3ccccc3C(F)(F)F)cc2)n(-c2cccc(C(=N)N)c2)n1', 'Trypsin (Homo sapiens, UniProt P07477+P07478+P35030)', 'Ki', 0.049),
  ('N=C(N)c1cccc(-n2nc(C(F)(F)F)cc2C(=O)Nc2ccc(-c3ccccc3S(N)(=O)=O)cn2)c1', 'Trypsin (Homo sapiens, UniProt P07477+P07478+P35030)', 'Ki', 0.059),
  ('Cc1cc(C(=O)Nc2ccc(-c3ccccc3S(C)(=O)=O)cc2)n(-c2cccc(CN)c2)n1', 'Trypsin (Homo sapiens, UniProt P07477+P07478+P35030)', 'Ki', 0.22),
  ('Cc1cc(C(=O)Nc2ccc(-c3ccccc3S(N)(=O)=O)cc2F)n(-c2cccc(CN)c2)n1', 'Trypsin (Homo sapiens, UniProt P07477+P07478+P35030)', 'Ki', 0.12),
  ('N=C(N)c1cccc(-n2nc(C(F)(F)F)cc2C(=O)Nc2ccc(-c3ccccc3S(N)(=O)=O)cc2F)c1', 'Trypsin (Homo sapiens, UniProt P07477+P07478+P35030)', 'Ki', 0.004),
  ('CS(=O)(=O)c1ccccc1-c1ccc(NC(=O)c2cc(C(F)(F)F)nn2-c2cccc(C(=N)N)c2)c(F)c1', 'Trypsin (Homo sapiens, UniProt P07477+P07478+P35030)', 'Ki', 0.0034);

Kindly review the next compound as well.
Input line: GET /values?readout=Ki&item= Cc1cc(C(=O)Nc2ccc(-c3ccccc3)cc2)n(-c2cccc(C(=N)N)c2)n1
Output line: 0.087
